Source: PubChem BioAssay (EPA / NIEHS)

- test protocol: BSK_MyoF_SRB: Viability Assessment in the BioMAP Diversity Plus: MyoF Assay (AID 2284267);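 further: total protein by SRB absorbance in parallel cultures as cytotoxicity measure; cells assessed 24 h after compound addition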
- measurement conditions: primary human lung fibroblasts
- Method: BSK_MyoF is a cell-based, multiplexed-readout assay that uses lung fibroblasts, […], with measurements taken at 24 hours after chemical dosing in a microplate: 96-well plate.BSK_MyoF_SRB is an assay component measured in the BSK_MyoF assay. […] The levels of cell surface (or secreted, indicated by the prefix "s") biomarker endpoints were measured by ELISA. […] Plates were read after 6 h.
Activity calls are given as the source filed them. How the source made its calls: active means hit-call score of the fitted dose curve at least 0.9, where 1 is the maximum; inactive means score below 0.9.
Returns: one label drawn from active, inactive

Test call for this compound, please: CC(C)c1ccc(C(C)C)cc1 inactive

Test call for this compound, please: CCc1c(C)cc(N)c(CC)c1N inactive

Test call for this compound, please: CC(=O)/C=C/C1=C(C)CCCC1(C)C inactive

Test call for this compound, please: N#Cc1ccc(CC(=NNC(=O)Nc2ccc(OC(F)(F)F)cc2)c2cccc(C(F)(F)F)c2)cc1 inactive

Test call for this compound, please: O=C(O)c1cn(C2CC2)c2cc(N3CCNCC3)c(F)cc2c1=O inactive

Test call for this compound, please: c1ccc2sc(SN(C3CCCCC3)C3CCCCC3)nc2c1 inactive

Test call for this compound, please: BrC1CCC(Br)C(Br)CCC(Br)C(Br)CCC1Br (stereo not drawn) inactive

Test call for this compound, please: CC(C)(COC(=O)c1ccccc1)COC(=O)c1ccccc1 inactive

Test call for this compound, please: CC1COc2ccccc2N1C(=O)C(Cl)Cl (stereo not drawn) active

Test call for this compound, please: CCn1c2ccccc2c2cc(N)ccc21 inactive

Test call for this compound, please: O=C1OC2(c3cc(Br)c(O)c(Br)c3Oc3c2cc(Br)c(O)c3Br)c2c(Cl)c(Cl)c(Cl)c(Cl)c21 active

Test call for this compound, please: O=C=NC1CCC(CC2CCC(N=C=O)CC2)CC1 (stereo not drawn) inactive

Test call for this compound, please: Cc1ccc2n[nH]nc2c1 inactive

Test call for this compound, please: C=C[Si](OCC)(OCC)OCC inactive

Test call for this compound, please: CC(C)Oc1ccccc1O inactive

Test call for this compound, please: COC(=O)c1ccc(C)cc1 inactive

Test call for this compound, please: CCCCCCCCCC=O inactive

Test call for this compound, please: CCCCC(CC)COC(=O)/C=C\C(=O)OCC(CC)CCCC (stereo not drawn) inactive

Test call for this compound, please: O=P(c1ccccc1)(c1ccccc1)c1ccccc1 inactive

Test call for this compound, please: CCCCCCCCCCCCCCCCCC(=O)OCC(CC)CCCC (stereo not drawn) inactive

Test call for this compound, please: Cc1ccc(Nc2ccc(O)c3c2C(=O)c2ccccc2C3=O)cc1 inactive

Test call for this compound, please: O=[N+]([O-])c1cc(C(F)(F)F)ccc1Cl inactive

Test call for this compound, please: CNC[C@H](O)c1cccc(O)c1 inactive

---

- study target: Cellular tumor antigen p53 (Homo sapiens) (UniProt P04637)
- Sequence (P04637 whole entry, looked up): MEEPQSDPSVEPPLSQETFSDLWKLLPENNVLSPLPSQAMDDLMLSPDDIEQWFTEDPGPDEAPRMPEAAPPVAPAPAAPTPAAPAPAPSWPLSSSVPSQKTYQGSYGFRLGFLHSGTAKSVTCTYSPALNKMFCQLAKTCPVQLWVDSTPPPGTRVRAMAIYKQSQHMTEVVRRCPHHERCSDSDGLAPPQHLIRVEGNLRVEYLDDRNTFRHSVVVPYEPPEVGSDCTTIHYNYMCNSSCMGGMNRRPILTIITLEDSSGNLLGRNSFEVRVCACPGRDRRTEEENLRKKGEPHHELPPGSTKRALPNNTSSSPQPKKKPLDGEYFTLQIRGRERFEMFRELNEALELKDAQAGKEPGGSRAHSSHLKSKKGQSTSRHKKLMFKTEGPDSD
- test protocol: TOX21_p53_BLA_p5_ratio: Tox21 HCT-116 p53 Agonism Beta-lactamase Assay, Ratio, Phase 5 (AID 2283599)
- Method: TOX21_p53_BLA_p5 is a cell-based, single-readout assay that uses HCT116, a human intestinal cell line, […] in a 1536-well plate.TOX21_p53_BLA_p5_ratio is an assay readout measuring reporter gene via receptor activity and designed using inducible reporter (beta lactamase induction) detected with GAL4 b-lactamase reporter gene. […] This assay endpoint, TOX21_p53_BLA_p5_ratio, was analyzed in the positive analysis fitting direction relative to DMSO as the negative control and baseline of activity. […]
Inconclusive results are not listed. Calls of active or inactive are those of the source. Rule for the calls: active = hit-call score of the fitted dose curve at least 0.9, where 1 is the maximum; inconclusive = response in the unintended direction; inactive = score below 0.9.
Returns: one label drawn from y = active, n = inactive

Test call for this compound, please: CC(C)[C@@H]1CC[C@@H](C)CC1=O n

Test call for this compound, please: COc1ccc(O)cc1 n

Test call for this compound, please: CC(=O)Nc1ccc(C)cc1C n

Test call for this compound, please: OC[C@H]1O[C@H](O[C@]2(CCl)O[C@H](CCl)[C@@H](O)[C@@H]2O)[C@H](O)[C@@H](O)[C@H]1Cl n

Test call for this compound, please: C[Si](O[Si](C)(C)C)O[Si](C)(C)C n

Test call for this compound, please: CC(=O)OCCC(C)CC(C)(C)C (stereo not given) n

Test call for this compound, please: CC1=CCC(O)(C(C)C)CC1 (stereo not given) n

Test call for this compound, please: CC1=CCC2C(C1)C2(C)C (stereo not given) n

Test call for this compound, please: C=CC(=O)OCCOCCOCC n

Test call for this compound, please: CN(C)CCCN n

Test call for this compound, please: CCCc1c(OCCCOc2ccc(OCC(=O)O)cc2)ccc(C(C)=O)c1O y

Test call for this compound, please: C=CCOC(=O)CCC1CCCCC1 n

Test call for this compound, please: C[C@]12CC[C@H]3[C@@H](CCC4=CC(=O)CC[C@@]43C)[C@@H]1CC[C@@H]2C(=O)CO n

Test call for this compound, please: CC1(C)[C@H]2CC[C@]1(C)[C@H](O)C2 n

Test call for this compound, please: CC(=O)O[C@]1(C(C)=O)CC[C@H]2[C@@H]3C[C@H](C)C4=CC(=O)CC[C@]4(C)[C@H]3CC[C@@]21C n

---

- Read-out: Monokine induced gamma interferon (MIG), CXCL9 (gene 4283)
- test protocol: BSK_SAg_MIG: BioMAP Diversity Plus: SAg Assay for Monokine induced gamma interferon (MIG) Biomarker Activity (AID 2283092)
- measurement conditions: primary human HUVEC with PBMC; actives raise or lower the signal
Activity calls are given as the source filed them. Rule for the calls: active = hit-call score of the fitted dose curve at least 0.9, where 1 is the maximum; inactive = score below 0.9.
parameter measured: AC50

>>> print(df.to_string())
                                   compound  parameter_measured        test_value
0  CC1CCC(C(C)CS)CC1S (configuration not stated)                AC50  34.6 µM (active)
1  N#Cc1ccc(CC(=NNC(=O)Nc2ccc(OC(F)(F)F)cc2)c2cccc(C(F)(F)F)c2)cc1                AC50          inactive
2  C=C(C)C(=O)O[C@H]1C[C@@H]2CC[C@@]1(C)C2(C)C                AC50  36.3 µM (active)
3  C#C[C@]1(O)CC[C@H]2[C@@H]3CCC4=Cc5oncc5C[C@]4(C)[C@H]3CC[C@@]21C                AC50          inactive
4                         CCCCC/C=C/C=C/C=O                AC50  35.6 µM (active)
5       c1ccc2sc(SN(C3CCCCC3)C3CCCCC3)nc2c1                AC50          inactive
6           CC[Si](OC(C)=O)(OC(C)=O)OC(C)=O                AC50          inactive
7                         CCC(=O)OCc1ccccc1                AC50          inactive

The measured AC50 associated with CC(C)(COC(=O)c1ccccc1)COC(=O)c1ccccc1 reads inactive

The measured AC50 associated with C=CCOC(=O)CCC1CCCCC1 reads inactive

The measured AC50 associated with O=P(c1ccccc1)(c1ccccc1)c1ccccc1 reads inactive

The measured AC50 associated with CC(=O)/C=C/C1=C(C)CCCC1(C)C reads inactive

---

- Read-out: Macrophage colony-stimulating factor (MCSF), CSF1 (gene 1435)
- test protocol: BSK_CASM3C_MCSF: BioMAP Diversity Plus: CASM3C Assay for Macrophage colony-stimulating factor (MCSF) Biomarker Activity (AID 2283044);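 further: M-CSF protein amount quantified by ELISA after 24 h exposure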
- measurement conditions: primary human coronary artery smooth muscle cells; actives raise or lower the signal
Calls of active or inactive are those of the source. Rule for the calls: active = hit-call score of the fitted dose curve at least 0.9, where 1 is the maximum; inactive = score below 0.9.
Returns: one label drawn from True for active, False for inactive

Test call for this compound, please: CNC[C@H](O)c1cccc(O)c1 False

Test call for this compound, please: CCc1c(C)cc(N)c(CC)c1N False

Test call for this compound, please: CCn1c2ccccc2c2cc(N)ccc21 True

Test call for this compound, please: C=C[Si](OCC)(OCC)OCC False

Test call for this compound, please: CC1CCC(C(C)CS)CC1S (stereo unspecified) True

Test call for this compound, please: CCCCC(CC)COC(=O)/C=C\C(=O)OCC(CC)CCCC (stereo unspecified) False

Test call for this compound, please: O=C(O)C[C@H](O)C[C@H](O)/C=C/c1c(C2CC2)nc2ccccc2c1-c1ccc(F)cc1 True

Test call for this compound, please: O=C(O)c1ccc([N+](=O)[O-])cc1 False

Test call for this compound, please: c1ccc2c(c1)c1cccc3ccc4cccc2c4c31 False

Test call for this compound, please: CN(CCOc1ccc(CC2SC(=O)NC2=O)cc1)c1ccccn1 (stereo unspecified) False

Test call for this compound, please: CCCCCCCCC=O False

Test call for this compound, please: Cc1cc(C2(c3cc(C)c(O)cc3C)OS(=O)(=O)c3ccccc32)c(C)cc1O False

Test call for this compound, please: CC(C)Oc1ccccc1O False

Test call for this compound, please: O=C=NC1CCC(CC2CCC(N=C=O)CC2)CC1 (stereo unspecified) False

Test call for this compound, please: Cc1ccc(O)c(C(C)(C)C)c1 False

Test call for this compound, please: CCCCCCCCCCCCCCCCCC(=O)OCC(CC)CCCC (stereo unspecified) False

Test call for this compound, please: N#Cc1ccc(CC(=NNC(=O)Nc2ccc(OC(F)(F)F)cc2)c2cccc(C(F)(F)F)c2)cc1 False

Test call for this compound, please: CC(=O)OCCC(C)CC(C)(C)C (stereo unspecified) False

Test call for this compound, please: C=C(C)C(=O)O[C@H]1C[C@@H]2CC[C@@]1(C)C2(C)C True

Test call for this compound, please: CC(C)c1ccc(C(C)C)cc1 True

Test call for this compound, please: Cc1ccc2n[nH]nc2c1 False

Test call for this compound, please: CCC(=O)OCc1ccccc1 False

Test call for this compound, please: COC(=O)c1ccc(C)cc1 False

Test call for this compound, please: O=C1OC2(c3cc(Br)c(O)c(Br)c3Oc3c2cc(Br)c(O)c3Br)c2c(Cl)c(Cl)c(Cl)c(Cl)c21 False

Test call for this compound, please: C[C@H]1C[C@@H]2[C@H]([C@@H](O)C[C@@]3(C)[C@H]2CC[C@]3(O)C(=O)CO)[C@@]2(C)C=CC(=O)C=C12 True

Test call for this compound, please: BrC1CCC(Br)C(Br)CCC(Br)C(Br)CCC1Br (stereo unspecified) False
